The measurements presented in this section are drawn from patent US7989464B2.

- Measured target: hmGluR1 receptor (Homo sapiens, UniProt Q13255)
- Construct: expressed in transfected cells
- Sequence (Q13255 19-1194): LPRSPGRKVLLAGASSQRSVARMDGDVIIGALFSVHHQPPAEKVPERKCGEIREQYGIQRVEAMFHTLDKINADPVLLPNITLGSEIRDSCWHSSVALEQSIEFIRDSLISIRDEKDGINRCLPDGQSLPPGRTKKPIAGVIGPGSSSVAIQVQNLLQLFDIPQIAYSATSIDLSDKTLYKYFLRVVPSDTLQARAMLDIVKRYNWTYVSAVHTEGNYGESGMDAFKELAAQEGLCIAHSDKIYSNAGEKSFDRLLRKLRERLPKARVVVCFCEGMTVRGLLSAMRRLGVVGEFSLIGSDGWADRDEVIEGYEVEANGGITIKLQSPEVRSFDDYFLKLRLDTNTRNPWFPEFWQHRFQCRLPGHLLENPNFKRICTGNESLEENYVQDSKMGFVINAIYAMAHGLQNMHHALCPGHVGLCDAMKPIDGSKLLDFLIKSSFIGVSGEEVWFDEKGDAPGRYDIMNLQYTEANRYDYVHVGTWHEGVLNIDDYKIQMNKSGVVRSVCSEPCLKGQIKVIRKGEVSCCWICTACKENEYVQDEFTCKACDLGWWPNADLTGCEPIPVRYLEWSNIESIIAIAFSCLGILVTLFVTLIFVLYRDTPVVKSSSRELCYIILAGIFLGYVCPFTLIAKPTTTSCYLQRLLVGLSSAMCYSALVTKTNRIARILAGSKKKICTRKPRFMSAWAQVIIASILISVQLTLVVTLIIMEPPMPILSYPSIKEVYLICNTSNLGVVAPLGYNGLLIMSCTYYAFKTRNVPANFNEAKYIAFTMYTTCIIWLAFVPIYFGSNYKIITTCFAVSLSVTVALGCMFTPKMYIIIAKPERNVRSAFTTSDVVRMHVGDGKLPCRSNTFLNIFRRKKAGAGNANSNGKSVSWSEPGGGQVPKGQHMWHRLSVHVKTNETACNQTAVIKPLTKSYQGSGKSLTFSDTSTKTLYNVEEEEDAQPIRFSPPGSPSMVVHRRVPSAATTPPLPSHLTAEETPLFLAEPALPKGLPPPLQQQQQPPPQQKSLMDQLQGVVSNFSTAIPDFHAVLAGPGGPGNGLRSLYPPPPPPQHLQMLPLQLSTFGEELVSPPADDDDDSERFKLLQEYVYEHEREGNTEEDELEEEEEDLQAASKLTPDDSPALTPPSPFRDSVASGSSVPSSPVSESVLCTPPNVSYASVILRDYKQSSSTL
- Assay info: IC50 determination: intracellular calcium mobilization (FLIPR) upon Quisqualate stimulation in CHO cells stably expressing hmGluR1
- Assay type: cell-based
- Test context: against Quisqualate 1 μM (EC80), class symbols, read-out: mGIuR 1 IC50
pIC50: −log10 of the molar value.
Each record here notes measured pIC50.
Readout type: pIC50

compound="COCCNc1ccnc2sc3c(=O)n(-c4ccc(C)cc4)cnc3c12 [28AZ]" test_result="> 7.30"
compound=Cc1ccc(-n2cnc3c(sc4nccc(C(N)=O)c43)c2=O)cc1 test_result="< 6.00"
compound="CN(C)c1ccnc2sc3c(=O)n([C@H]4CC[C@H](O)CC4)cnc3c12 [15T]" test_result="6.00 to 6.82"
compound="O=c1c2sc3nccc(NC4CCCCC4)c3c2ncn1-c1ccc(OC(F)(F)F)cc1 [28F]" test_result="< 6.00"
compound=CN(C)c1cc(N2CCCC2)nc2sc3c(=O)n(C4CCCCC4)cnc3c12 test_result="< 6.00"
compound="CCN(C)c1ncnc2sc3c(=O)n(-c4ccc(SC)cc4)cnc3c12 [95L]" test_result="> 7.30"
compound=CC(=O)Nc1ccc(-n2cnc3c(sc4nccc(N(C)C)c43)c2=O)cc1 test_result="< 6.00"
compound=COc1ccc(-n2cnc3c(sc4nccc(N(C)C)c43)c2=O)cc1 test_result="> 7.30"
compound="CCN(C)c1ncnc2sc3c(=O)n(-c4cccnc4)cnc3c12 [95M]" test_result="6.82 to 7.30"
compound="Cc1ccc(-n2cnc3c(sc4nc(C(C)C)cc(N(C)C)c43)c2=O)cc1 [87A]" test_result="6.00 to 6.82"
compound="Cc1nc2c(sc3nccc(NC4CC4)c32)c(=O)n1-c1ccccc1 [113C]" test_result="6.00 to 6.82"
compound=COc1ccc(-n2cnc3c(sc4nccc(N(C)C)c43)c2=O)cc1F test_result="> 7.30"
compound=CCN(CC)C(=O)N1CCN(c2ccnc3sc4c(=O)n(C5CCCCC5)cnc4c23)CC1 test_result="< 6.00"
compound=CCCCn1cnc2c(sc3nccc(N(C)C)c32)c1=O test_result="6.82 to 7.30"
compound="O=C1CCCN1c1ccnc2sc3c(=O)n(C4CCCCC4)cnc3c12 [30C]" test_result="< 6.00"
compound="CN(C)c1cncc2sc3c(=O)n(N4CCCCC4)cnc3c12 [60L]" test_result="6.00 to 6.82"
compound="COc1ccc(Cn2c3nccc(N(C)C)c3c3ncn(-c4ccc(C)cc4)c(=O)c32)cc1 [134H]" test_result="< 6.00"
compound="CN1CCC(n2cnc3c(sc4nccc(N(C)C)c43)c2=O)CC1 [15U]" test_result="6.00 to 6.82"
compound="CN(C)c1ccnc2sc3c(=O)n(-c4cc[nH]n4)cnc3c12 [15W]" test_result="< 6.00"
compound=Cc1ccc(-n2cnc3c(sc4nc(C)cc(N(C)C)c43)c2=O)cc1 test_result="> 7.30"
compound="CN(C)c1ccnc2sc3c(=O)n(N4CCCCCC4)cnc3c12 [60D]" test_result="> 7.30"
compound="CCOC(=O)c1cnc2sc3c(=O)n(-c4ccc(C)cc4)cnc3c2c1 [144A]" test_result="6.82 to 7.30"
compound=CN(C)c1ccnc2sc3c(=O)n(-c4ccc5c(c4)NC(=O)CO5)cnc3c12 test_result="> 7.30"
compound=CCOC(=O)N1CCC(n2cnc3c(sc4nccc(N(C)C)c43)c2=O)CC1 test_result="< 6.00"
compound=CN(C)c1ccnc2sc3c(=O)n(-c4nc5ccccc5s4)cnc3c12 test_result="6.00 to 6.82"
compound="Cc1ccc(-n2cnc3c(sc4nccc(NCCN(C)C)c43)c2=O)cc1 [28BA]" test_result="6.00 to 6.82"
compound="Cc1ccc(-n2cnc3c(sc4nccc(N)c43)c2=O)cc1 [72H]" test_result="> 7.30"
compound="CN(C)c1ccnc2sc3c(=O)n(-c4ccc(C5CC5)cc4)cnc3c12 [137A]" test_result="> 7.30"
compound=O=c1c2sc3nc(Cl)ccc3c2ncn1-c1ccccc1 test_result="< 6.00"
compound="CCNc1ncnc2sc3c(=O)n(-c4ccc(SC)cc4)cnc3c12 [95AD]" test_result="> 7.30"
compound="CN(C)c1cc[n+]([O-])c2sc3c(=O)n(-c4ccc(Cl)cc4)cnc3c12 [12B]" test_result="6.82 to 7.30"
compound="O=c1c2sc3nccc(NCc4ccccc4)c3c2ncn1C1CCCCC1 [72E]" test_result="< 6.00"
compound="CCc1cc(N(C)C)c2c(n1)sc1c(=O)n(-c3ccc(C)cc3)cnc12 [87B]" test_result="6.82 to 7.30"
compound="COc1ccc(-n2cnc3c(sc4nccc(NC5CC5)c43)c2=O)cc1 [28AL]" test_result="> 7.30"
compound="COc1ccc(-n2cnc3c(sc4nccc(N5CCC5)c43)c2=O)cc1 [28AM]" test_result="6.82 to 7.30"
compound=CC(=O)N1CCN(c2ccnc3sc4c(=O)n(C5CCCCC5)cnc4c23)CC1 test_result="< 6.00"
compound="C=CCNc1ccnc2sc3c(=O)n(C4CCCCC4)cnc3c12 [72B]" test_result="> 7.30"
compound="CCNc1ccnc2sc3c(=O)n(-c4ccc(OC)cc4)cnc3c12 [131A]" test_result="> 7.30"
compound="O=c1c2sc3nccc(N4CCCC4)c3c2ncn1C1CCCCC1 [28A]" test_result="< 6.00"
compound="COc1ccc(-n2cnc3c4c(N(C)C)ccnc4n(C)c3c2=O)cc1 [134B]" test_result="6.00 to 6.82"
